Biological target: HLA-DRB1*0101 (Homo sapiens, UniProt P01903+P01911, A100R/D57E/F55L/F60I/F76Y/I96L/L162R/M171V/P40L/Q125E/R42F/V115G/Y59C)
Construct: purchased
Experiment: biochemical
Format: binding
Settings: binding inhibition assay; NB = non-binder (no dose-dependent inhibition); read-out: DRB1*0101 IC50
Where a SMILES comes first, the peptide text is derived from it.
Reported values of pIC50 for individual entries
Value format note: pIC50 is -log10 of concentration (mol/L); just state the number.

compound | pIC50
CC[C@H](C)[C@H](NC(=O)[C@H](Cc1ccc(O)cc1)NC(=O)[C@@H]1CCCN1C(=O)[C@H](CC(N)=O)NC(=O)[C@H](CC(=O)O)NC(C)=O)C(=O)N[C@@H](CO)C(=O)N[C@@H](CCCCN)C(=O)N[C@@H](Cc1ccc(O)cc1)C(=O)NCC(=O)N[C@@H](CC(N)=O)C(=O)N[C@@H](CCCCN)C(=O)N[C@@H](CC(C)C)C(=O)N[C@@H](CS)C(=O)N[C@@H](CCC(=O)O)C(=O)N[C@@H](CCCNC(=N)N)C(N)=O [RIPR_014] (Ac-DNPYISKYGNKLCER-NH2) | 7.04
CC[C@H](C)[C@H](NC(=O)[C@H](CC(N)=O)NC(=O)[C@H](CC(N)=O)NC(=O)[C@H](CCCCN)NC(=O)[C@H](Cc1c[nH]cn1)NC(=O)[C@H](CCC(=O)O)NC(=O)[C@H](CO)NC(=O)[C@H](CC(C)C)NC(=O)[C@H](CCSC)NC(=O)[C@H](C)NC(=O)[C@H](CCC(=O)O)NC(=O)[C@H](Cc1c[nH]c2ccccc12)NC(=O)[C@H](CC(C)C)NC(=O)[C@H](CCCCN)NC(=O)[C@H](CCC(=O)O)NC(C)=O)C(=O)N[C@@H](CC(N)=O)C(=O)N[C@@H](CC(N)=O)C(N)=O [EBA175_008] (Ac-EKLWEAMLSEHKNNINN-NH2) | 5.25

We next turn to a different compound, shown below.
For reference, reported pIC50 for CC[C@H](C)[C@H](NC(=O)[C@H](CCSC)NC(=O)[C@H](CO)NC(=O)[C@H](C)N)C(=O)N[C@@H](CCCCN)C(=O)N[C@@H](CO)C(=O)N[C@@H](C)C(=O)N[C@@H](Cc1ccccc1)C(=O)N[C@@H](CC(C)C)C(=O)N1CCC[C@H]1C(=O)N[C@H](C(=O)NCC(=O)N[C@@H](C)C(=O)N[C@@H](Cc1ccccc1)C(=O)N[C@@H](CCCCN)C(N)=O)[C@@H](C)O [AMA1_006B] (H-ASMIKSAFLPTGAFK-NH2) stands at 5.49

* * *

Biological target: HLA-A*0301 (Homo sapiens)
Assay: biochemical
Format: binding
Conditions: allele A*0301; cell-free competition, fluorescence polarization at 72 hours; Non-binder = no dose-dependent inhibition; read-out: IC50
Where a SMILES comes first, the peptide text is derived from it.
experimental endpoint: IC50 (nM)
Unit nM implied. Number only.

Some molecules with recorded IC50:
molecule | unit spec | meas value
CC[C@H](C)[C@H](NC(=O)[C@H](CC(=O)O)NC(=O)[C@@H](NC(=O)[C@H](Cc1c[nH]cn1)NC(=O)[C@H](CO)NC(=O)[C@H](CC(C)C)NC(=O)[C@@H](N)CCCNC(=N)N)[C@@H](C)O)C(=O)N[C@@H](Cc1c[nH]cn1)C(=O)N[C@@H](CCCCN)C(=O)O [EBA175_1214] (H-RLSHTDIHK-OH) | nM | 1740
CC[C@H](C)[C@H](NC(=O)[C@H](Cc1c[nH]c2ccccc12)NC(=O)[C@H](CCC(=O)O)NC(=O)[C@H](CCCCN)NC(=O)[C@H](Cc1ccc(O)cc1)NC(=O)[C@H](CO)NC(=O)[C@@H](N)CC(N)=O)C(=O)N[C@@H](CO)C(=O)N[C@@H](CCCCN)C(=O)N[C@@H](CCCCN)C(=O)O [EBA175_0667] (H-NSYKEWISKK-OH) | nM | 7370
CC[C@H](C)[C@H](NC(=O)[C@H](Cc1ccccc1)NC(=O)[C@@H](NC(=O)[C@H](Cc1ccccc1)NC(=O)[C@@H](NC(=O)[C@@H](N)CCCCN)[C@@H](C)CC)[C@@H](C)O)C(=O)N[C@@H](CCC(=O)O)C(=O)N[C@@H](CC(N)=O)C(=O)N[C@@H](CCCCN)C(=O)O [EBA175_0058] (H-KIFTFIENK-OH) | nM | 467

Consider the record given below.
get_value(item= CC[C@H](C)[C@H](N)C(=O)N[C@@H](CC(C)C)C(=O)N[C@@H](CC(N)=O)C(=O)N[C@@H](CC(N)=O)C(=O)N[C@@H](CO)C(=O)N[C@@H](CCCCN)C(=O)N[C@@H](Cc1ccccc1)C(=O)N[C@@H](CC(N)=O)C(=O)N[C@@H](CCCCN)C(=O)O [EBA175_0069] (H-ILNNSKFNK-OH) , readout=IC50) returns 420
